Here, each record is paired with measured melting point data.
assay-metric: melting point

>  <substance-smiles>
O=c1cnc2c(NCCO)nc(SCc3cccc(C(F)(F)F)c3F)nc2[nH]1

>  <recorded-value>
221 to 222 °C

$$$$
>  <substance-smiles>
C[C@H](CO)Nc1nc(SCc2cccc(C(F)(F)F)c2F)nc2[nH]c(=O)cnc12

>  <recorded-value>
217 to 219 °C

$$$$
>  <substance-smiles>
C[C@H](CO)Nc1nc(SCc2cccs2)nc2[nH]c(=O)cnc12

>  <recorded-value>
209 to 212 °C

$$$$
>  <substance-smiles>
Cc1ccc(CSc2nc(N[C@H](C)CO)c3ncc(=O)[nH]c3n2)o1

>  <recorded-value>
197 to 199 °C

$$$$
>  <substance-smiles>
COc1ccc(CSc2nc(NC(CO)CO)c3ncc(=O)[nH]c3n2)cc1Cl

>  <recorded-value>
209 to 211 °C

$$$$
>  <substance-smiles>
O=c1cnc2c(NC(CO)CO)nc(SCc3cccc(C(F)(F)F)c3F)nc2[nH]1

>  <recorded-value>
244 to 245 °C

$$$$
>  <substance-smiles>
C[C@H](CO)Nc1nc(SCc2ccccc2F)nc2[nH]c(=O)cnc12

>  <recorded-value>
203 to 205 °C

$$$$
>  <substance-smiles>
C[C@H](CO)Nc1nc(SCc2ccno2)nc2[nH]c(=O)cnc12

>  <recorded-value>
191 to 194 °C

$$$$
>  <substance-smiles>
O=c1cnc2c(NCCO)nc(SCc3cccc(Cl)c3F)nc2[nH]1

>  <recorded-value>
195 to 196.5 °C

$$$$
>  <substance-smiles>
O=c1cnc2c(NC(CO)CO)nc(SCc3cccc(Cl)c3F)nc2[nH]1

>  <recorded-value>
218.5 to 220.5 °C

$$$$
>  <substance-smiles>
O=c1cnc2c(NC(CO)CO)nc(SCc3cccs3)nc2[nH]1

>  <recorded-value>
220 to 223 °C

$$$$
>  <substance-smiles>
C[C@H](CO)Nc1nc(SCc2cccc(Cl)c2F)nc2[nH]c(=O)cnc12

>  <recorded-value>
209 to 211 °C

$$$$
